target: pertussis toxin (PTx) holotoxin, native (Bordetella pertussis, strain  …, UniProt P04977;P04978;P04979;P0A3R5;P04981); test: ELISA; conditions: both partners purified
Endpoint Name: EC50

biotinylated antibody E12, recombinant human IgG1 (antibody, V domains shown) VH: EVQLVESGGDLVQPGGSLRLSCEASGFTFSNYAMSWVRQAPGKGLEWVSGTSGSGGSTYYADSVKGRFTLSRDNSKNTLYLQMNSLRAEDTAVYYCAKDREVLRFFLLPYYFDSWGQGTLVTVSS VL: DIVMTQSPGSLSLSPGERATLSCRASQSVSSDYVAWYQQKPGQAPRLLIFDASTRATGIPDRFSGSGSGTDFTLTIGRLEPEDFAVYYCQQYGNSPLTFGGGAKVEIK
0.56 nM
biotinylated antibody D8, recombinant human IgG1 (antibody, V domains shown) VH: QITLRESGAEVTKPGSSVKVSCKASGGTFGSYGIRWVRQAPGQGLEWMGGIIPMFGTANYAQRFQGRVTITADKSTSTAYMELSSLKSEDTAVYYCARENSIVGANWFDPWGQGTLVTVSS VL: EIVMTQSPSSLSASVGDRVTFTCRASQSISTYLNWYQQKPGKAPTLLIYAASTLRSGVPSRFSGSGSGTDFTLTISSLQPVDFATYFCQQSYSSPYTFGQGTTLEIK
0.76 nM
biotinylated antibody A8, recombinant human IgG1 (antibody, V domains shown) VH: QVQLVESGAEVKKPGASVKVSCKTSGYTFSSYGITWVRQAPGQGLEWMGWISAYNGDTNYADSVKGRVTMTTDTSTSTAYMELRSLRFDDTAVYYCARDTSFAPSGYGFDISGQGTTVTVSS VL: DIQLTQSPSSLSASVGDRVTITCRASQGIRHELAWYQQKPGKAPQRLIYAASSLQSGVPSRFSGSGSGTDFTLTINSLQPEDSATYYCLQVNSYPRTFGQGTRVDIK
0.65 nM
biotinylated antibody H5, recombinant human IgG1 (antibody, V domains shown) VH: QVQLVESGPGLVKPSETLSLTCTVSGASVSSGTYYWSWIRQPPGKGLEWIGYSYYTGSSDSNASLKSRVTLSIDTSRNLLSLKLTSVTAADTAVYYCARDRRKVRGVWAGYSGMDVWGPGTTVTVSS VL: EIVMTQSPSSLSASVGDRVTITCQASQEITNYLNWYQQKPGKAPKLLIYDASHLETGVPSRFSGSGSGTDFSFTISSLQPEDIATYYCQQYDDFPWGGVTFGGGTKVEIK
0.06 nM
biotinylated antibody A12, recombinant human IgG1 (antibody, V domains shown) VH: QVTLKESGGGLVKPGGSLRLSCAASGFTFTDYYMTWIRQAPGKGLEWVSCVGSSGTYTNYAQNVQGRFTISRDNAKNSLYLQMNSLRTEDTAVYYCARVTGSGNFYGSYHYYYMDVWGKGTMVTVSS VL: EVVLTQSPATLSLSPGKKATLSCRASQSVSNYLAWYQQKPGQSPRLLIFDASKRAAGIPARFSGSGSGTDFTLTISSLEPEDFAVYYCQQRTNWLTFGGGTKVEIK
0.24 nM

Data provenance: paper PMC5964521
